Each recorded value in this set is attributed to paper PMC5374635.

testDetails: DPPH radical scavenging activity
assayContext: means ± SE
Rule: IC50 values, DPPH below 20 µg/mL gives True, anything at or above gives False.

Below are worked cases with known answers.
CCCCCCCCCCCCCCCCCC(=O)O	True
CCCCCCCCCCCCCC(=O)O	False
CCC=CCC=CCC=CCCCCCCCC(=O)O	True
CC(=O)C=CC1C(C)=CCCC1(C)C (stereo not drawn)	False

Data request: Quick check: does CCCCCCCCC=CCCCCCCCC(=O)O have IC50 values, DPPH under 20 µg/mL?
Data returned: True

Data request: Quick check: does CCCCCC=CCC=CCCCCCCCC(=O)O have IC50 values, DPPH under 20 µg/mL?
Data returned: True

Data request: Quick check: does O=C1O[C@H]([C@@H](O)CO)C(O)=C1O [Ascorbic acid, reference compound] have IC50 values, DPPH under 20 µg/mL?
Data returned: False

Data request: Quick check: does CCCCCCCCCCCCCCCC(=O)O have IC50 values, DPPH under 20 µg/mL?
Data returned: False
